Measured MCC values are reported for all entries that follow.
test: Cytotoxicity of test compound to Vero host cells (minimum toxic concentration); settings: monkey, MTC (minimum toxic concentration), footnote: lowest concentration giving 50% reduction in percent survival of viable host cells

Asked: Query (compound): COc1cccc(COn2cnc3c(ncn3[C@@H]3O[C@H](CO)[C@@H](O)[C@H]3O)c2=N)c1.[O-][Cl+3]([O-])([O-])O ; field requested: MCC
Given back: > 320 µg/mL

Asked: Also check Cc1cccc(COn2cnc3c(ncn3[C@@H]3O[C@H](CO)[C@@H](O)[C@H]3O)c2=N)c1.[O-][Cl+3]([O-])([O-])O
Given back: > 320 µg/mL

Asked: Also check N=c1c2ncn([C@@H]3O[C@H](CO)[C@@H](O)[C@H]3O)c2ncn1OCc1ccc([N+](=O)[O-])cc1.[O-][Cl+3]([O-])([O-])O
Given back: > 320 µg/mL

---

test: Cytotoxicity of test compound to Vero host cells (minimum toxic concentration); conditions: monkey, MTC (minimum toxic concentration), footnote: lowest concentration giving 50% reduction in percent survival of viable host cells
Measured MCC values are reported for all entries that follow.

// below: answered molecules
item.smiles: CNc1c2ncn([C@@H]3O[C@H](CO)[C@@H](O)[C@H]3O)c2nc[n+]1[O-]
MCC: 320 µg/mL
//
item.smiles: N=c1c2ncn([C@@H]3O[C@H](CO)[C@@H](O)[C@H]3O)c2ncn1OCc1cccc([N+](=O)[O-])c1.[O-][Cl+3]([O-])([O-])O
MCC: > 320 µg/mL
//
item.smiles: N=c1c2ncn([C@@H]3O[C@H](CO)[C@@H](O)[C@H]3O)c2ncn1OCc1ccccc1.[O-][Cl+3]([O-])([O-])O
MCC: 320 µg/mL
//
item.smiles: N=c1c2ncn([C@@H]3O[C@H](CO)[C@@H](O)[C@H]3O)c2ncn1OCc1ccccc1C(F)(F)F.[O-][Cl+3]([O-])([O-])O
MCC: > 320 µg/mL

Asked: Query (molecule): N#Cc1ccc(COn2cnc3c(ncn3[C@@H]3O[C@H](CO)[C@@H](O)[C@H]3O)c2=N)cc1.[O-][Cl+3]([O-])([O-])O ; field requested: MCC
Given back: > 320 µg/mL

Asked: Also check N=c1c2ncn([C@@H]3O[C@H](CO)[C@@H](O)[C@H]3O)c2ncn1OCc1cc(F)cc(F)c1.[O-][Cl+3]([O-])([O-])O
Given back: > 320 µg/mL

Asked: Also check N=c1c2ncn([C@@H]3O[C@H](CO)[C@@H](O)[C@H]3O)c2ncn1OCc1cc(C(F)(F)F)cc(C(F)(F)F)c1.[O-][Cl+3]([O-])([O-])O
Given back: > 320 µg/mL

Asked: Also check Cc1ccc(COn2cnc3c(ncn3[C@@H]3O[C@H](CO)[C@@H](O)[C@H]3O)c2=N)cc1C.[O-][Cl+3]([O-])([O-])O
Given back: 320 µg/mL

Asked: Also check N#Cc1ccccc1COn1cnc2c(ncn2[C@@H]2O[C@H](CO)[C@@H](O)[C@H]2O)c1=N.[O-][Cl+3]([O-])([O-])O
Given back: > 320 µg/mL

Asked: Also check N=c1c2ncn([C@@H]3O[C@H](CO)[C@@H](O)[C@H]3O)c2ncn1OCc1ccccc1[N+](=O)[O-].[O-][Cl+3]([O-])([O-])O
Given back: > 320 µg/mL

Asked: Also check N#Cc1cccc(COn2cnc3c(ncn3[C@@H]3O[C@H](CO)[C@@H](O)[C@H]3O)c2=N)c1.[O-][Cl+3]([O-])([O-])O
Given back: > 320 µg/mL

Asked: Also check N=c1c2ncn([C@@H]3O[C@H](CO)[C@@H](O)[C@H]3O)c2ncn1OCc1cc(F)ccc1F.[O-][Cl+3]([O-])([O-])O
Given back: > 320 µg/mL

---

assay: Cytotoxicity of test compound to Vero host cells (minimum toxic concentration); details: monkey, MTC (minimum toxic concentration), footnote: lowest concentration giving 50% reduction in percent survival of viable host cells
measured.parameter: MCC

// below: answered compounds
compound: Cc1ccc(COn2cnc3c(ncn3[C@@H]3O[C@H](CO)[C@@H](O)[C@H]3O)c2=N)cc1.[O-][Cl+3]([O-])([O-])O
MCC: 100 µg/mL
--
compound: Cc1ccccc1COn1cnc2c(ncn2[C@@H]2O[C@H](CO)[C@@H](O)[C@H]2O)c1=N.[O-][Cl+3]([O-])([O-])O
MCC: > 320 µg/mL
--
compound: Cc1ccc(C)c(COn2cnc3c(ncn3[C@@H]3O[C@H](CO)[C@@H](O)[C@H]3O)c2=N)c1.[O-][Cl+3]([O-])([O-])O
MCC: 320 µg/mL
--
compound: N=c1c2ncn([C@@H]3O[C@H](CO)[C@@H](O)[C@H]3O)c2ncn1OCc1ccc(C(F)(F)F)cc1C(F)(F)F.[O-][Cl+3]([O-])([O-])O
MCC: > 320 µg/mL

Asked: Query (compound): N=c1c2ncn([C@@H]3O[C@H](CO)[C@@H](O)[C@H]3O)c2ncn1OCc1cccc(F)c1.[O-][Cl+3]([O-])([O-])O ; field requested: MCC
Given back: > 320 µg/mL

Asked: Also check N=c1c2ncn([C@@H]3O[C@H](CO)[C@@H](O)[C@H]3O)c2ncn1OCc1ccc(F)cc1F.[O-][Cl+3]([O-])([O-])O
Given back: > 320 µg/mL

Asked: Also check N=c1c2ncn([C@@H]3O[C@H](CO)[C@@H](O)[C@H]3O)c2ncn1OCc1cccc(Cl)c1.[O-][Cl+3]([O-])([O-])O
Given back: > 320 µg/mL

Asked: Also check Nc1ncnc2c1ncn2[C@@H]1O[C@H](CO)[C@@H](O)[C@@H]1O [AraA, 9-β-D-arabinofuranosyladenine, reference compound]
Given back: > 320 µg/mL

Asked: Also check COC(=O)c1cccc(COn2cnc3c(ncn3[C@@H]3O[C@H](CO)[C@@H](O)[C@H]3O)c2=N)c1.[O-][Cl+3]([O-])([O-])O
Given back: > 320 µg/mL

Asked: Also check N=c1c2ncn([C@@H]3O[C@H](CO)[C@@H](O)[C@H]3O)c2ncn1OCc1ccc(F)cc1.[O-][Cl+3]([O-])([O-])O
Given back: > 320 µg/mL

Asked: Also check COc1ccccc1COn1cnc2c(ncn2[C@@H]2O[C@H](CO)[C@@H](O)[C@H]2O)c1=N.[O-][Cl+3]([O-])([O-])O
Given back: 320 µg/mL

Asked: Also check Nc1c2ncn([C@@H]3O[C@H](CO)[C@@H](O)[C@H]3O)c2nc[n+]1[O-] [Compound 1a, Adenosine-N^1 -oxide]
Given back: 100 µg/mL

Asked: Also check Cc1ccc(COn2cnc3c(ncn3[C@@H]3O[C@H](CO)[C@@H](O)[C@H]3O)c2=N)c(C)c1.[O-][Cl+3]([O-])([O-])O
Given back: 320 µg/mL

---

assay: Cytotoxicity of test compound to Vero host cells (minimum toxic concentration); conditions: monkey, MTC (minimum toxic concentration), footnote: lowest concentration giving 50% reduction in percent survival of viable host cells
measured.parameter: MCC

// below: answered compounds
compound: COc1ccc([N+](=O)[O-])cc1COn1cnc2c(ncn2[C@@H]2O[C@H](CO)[C@@H](O)[C@H]2O)c1=N.[O-][Cl+3]([O-])([O-])O [Compound 2t]
result: > 320 µg/mL

compound: N=c1c2ncn([C@@H]3O[C@H](CO)[C@@H](O)[C@H]3O)c2ncn1OCc1ccccc1F.[O-][Cl+3]([O-])([O-])O [Compound 2g]
result: > 320 µg/mL

compound: N=c1c2ncn([C@@H]3O[C@H](CO)[C@@H](O)[C@H]3O)c2ncn1OCc1ccccc1Cl.[O-][Cl+3]([O-])([O-])O [Compound 2o]
result: > 320 µg/mL

Asked: Query (compound): N=c1c2ncn([C@@H]3O[C@H](CO)[C@@H](O)[C@H]3O)c2ncn1OCc1ccc(F)c(F)c1.[O-][Cl+3]([O-])([O-])O [Compound 2k] ; field requested: MCC
Given back: > 320 µg/mL

Asked: Also check Cc1cc(C)cc(COn2cnc3c(ncn3[C@@H]3O[C@H](CO)[C@@H](O)[C@H]3O)c2=N)c1.[O-][Cl+3]([O-])([O-])O [Compound 2aa]
Given back: 320 µg/mL

Asked: Also check Nc1c2ncn([C@H]3C[C@H](O)[C@@H](CO)O3)c2nc[n+]1[O-] [Compound 1b, 2'-Deoxyadenosine-N^1-oxide]
Given back: > 320 µg/mL
